B1: library; a variant is named by its letters at N, in order (parent)
chain: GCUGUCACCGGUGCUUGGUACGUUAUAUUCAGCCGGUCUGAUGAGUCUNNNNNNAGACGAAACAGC

Variants of: B1
Assay: normalized RNA/DNA level with ligand (relative to sTRSVctl = 100) (log10 (% of sTRSVctl)); HEK293T overexpressing SLC46A1; ligand concentration (+) RNA-Seq: 6 mM; higher = less ribozyme self-cleavage, higher mRNA level
Settings: with (6R,S)-folinic acid; ligand present: yes
testReadout: normalized RNA/DNA level with ligand (log10)

- AGUAUA: 2.02
- GUGGGA: 2.03
- ACGGGC: 2.09
